Measured THP-1 IC50, listed per entry for reference.
- TARGET_SYSTEM: T1, TNFR1 on THP-1 Lucia NF-kB reporter cells (UniProt P19438 30-455, limits assumed)
- T1 sequence (looked up): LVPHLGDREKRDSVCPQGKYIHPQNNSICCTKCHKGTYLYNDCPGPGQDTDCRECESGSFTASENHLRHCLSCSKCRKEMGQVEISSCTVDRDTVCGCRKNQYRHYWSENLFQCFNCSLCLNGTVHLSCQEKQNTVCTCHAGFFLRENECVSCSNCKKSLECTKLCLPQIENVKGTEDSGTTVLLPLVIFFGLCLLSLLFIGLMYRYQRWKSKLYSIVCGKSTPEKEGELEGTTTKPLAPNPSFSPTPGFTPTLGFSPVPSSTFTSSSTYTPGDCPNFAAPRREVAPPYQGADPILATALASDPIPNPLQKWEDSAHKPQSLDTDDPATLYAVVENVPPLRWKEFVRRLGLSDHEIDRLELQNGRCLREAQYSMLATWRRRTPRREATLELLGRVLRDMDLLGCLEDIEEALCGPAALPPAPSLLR
- ASSAY_METHOD_TEXT: cell-based or functional assay
Bridge positions count the residues as written; N and C are the ends. Square brackets hold non-standard residues; d marks the D form. Primed or numbered codes have the meaning given here. Trp(βS-Me,7-OMe) = COc1cccc2c([C@H](C)[C@H](N)C(=O)O)c[nH]c12; Phe(2-F,4-COOH) = N[C@@H](Cc1ccc(C(=O)O)cc1F)C(=O)O; Trp(7-Cl) = N[C@@H](Cc1c[nH]c2c(Cl)cccc12)C(=O)O; Phe(4-CONH2) = NC(=O)c1ccc(C[C@H](N)C(=O)O)cc1; Phe(4-COOH) = N[C@@H](Cc1ccc(C(=O)O)cc1)C(=O)O; Trp(7-aza) = N[C@@H](Cc1c[nH]c2ncccc12)C(=O)O; Phe(4-CH2NH2) = NCc1ccc(C[C@H](N)C(=O)O)cc1; 4Pal = N[C@@H](Cc1ccncc1)C(=O)O; NMeE = CN[C@@H](CCC(=O)O)C(=O)O; dHyp = O=C(O)[C@H]1C[C@H](O)CN1; Pipt5OH = not defined here; αMeS = C[C@](N)(CO)C(=O)O; Nle = CCCC[C@H](N)C(=O)O; Pip2c = not defined here; Pip′ = not defined here; Sar = CNCC(=O)O
Express your answer as a number followed by its unit.

binder="cyclo([bhcLeu][Nle][4Pal][Pip2c]W[NMeE]N[4Pal][Trp(7-Cl)][αMeS][Phe(2-F,4-COOH)]Y[Sar][Trp(βS-Me,7-OMe)]) (reading uncertain; also: printed as cyclo(bhcLeu-Nle-4Pal-Pip2c-W-NMeE-N-4Pal-Trp7Cl-aMeS-Phe2F4COOH-Y-Sar-SbMeW7OMe)) [SEQ ID NO. 7]" observed_value="1.6 nM"
binder="{CH2CO}-[Nle][4Pal][Pip′][Trp(7-aza)][NMeE]N[Phe(4-CH2NH2)][Trp(7-Cl)][αMeS][Phe(4-CH2NH2)]Y[Sar][Trp(βS-Me,7-OMe)]C-NH2 (thioether N-14) [SEQ ID NO. 58]" observed_value="16.2 nM"

Continue with the next binder.
In: Please look up its THP-1 IC50: cyclo([bhcLeu][Nle][4Pal][Pipt5OH]W[dHyp]N[AlaPyrim4COOH][Trp(7-Cl)][αMeS][Phe(4-CONH2)][Phe(4-COOH)][Sar][Trp(βS-Me,7-OMe)]) (reading uncertain; also: printed as cyclo(bhcLeu-Nle-4Pal-Pipt5OH-W-dProt4OH-N-AlaPyrim4COOH-Trp7Cl-aMeS-Phe4CONH2-Phe4COOH-Sar-SbMeW7OMe)) [SEQ ID NO. 88]
Out: 1.9 nM

Values from patent US20240287138A1
